Tested on: Mtb strain H37Rv
Test: MIC determination against Mtb H37Rv in different media
Format: cell-based, Mycobacterium tuberculosis
Conditions: Mycobacterium tuberculosis, H37RV; read-out: MIC 7H9/ADC
Let's look at some compounds and their measured MIC.
I only need the number, in µM, no unit after it.

smiles	MIC, µM
Cn1c(Cc2ccccc2C(F)(F)F)nc(C(=O)Nc2ccccc2)c(O)c1=O	18.8

Read the next record carefully.
Per the record, Cn1c(Cc2ccccc2C(F)(F)F)nc(C(=O)NCc2ccccn2)c(O)c1=O has MIC of 3.1

###

Tested on: Mtb strain H37Rv
Experiment: MIC determination against Mtb H37Rv in different media
Assay type: cell-based, Mycobacterium tuberculosis
Details: Mycobacterium tuberculosis, H37RV; read-out: MIC 7H9/ADC
metric: MIC (µM)
I only need the number, in µM, no unit after it.

Look over these answered cases.
smiles	units	MIC
Cn1c(Cc2ccccc2C(F)(F)F)nc(C(=O)NCc2ccccc2)c(O)c1=O	µM	4.7
Cn1c(Cc2ccccc2C(F)(F)F)nc(C(=O)CCc2ccccc2)c(O)c1=O	µM	100
Cn1c(Cc2ccccc2C(F)(F)F)nc(C(=O)NCc2cccnc2)c(O)c1=O	µM	18.8

Read the next record carefully.
Per the record, Cn1c(Cc2ccccc2C(F)(F)F)nc(C(=O)NCc2ccc(F)cc2)c(O)c1=O has MIC of 18.8
